System: HEK-293T
Test: Multiplex assay against HEK293T
Type: toxicity, cell-based
Details: human, 48 h, 10 µM, compound concentration 10 uM, replicate 1
Below, each entry is listed alongside its reported Population Hoechst High Intensity Objects (%).
The figure you give is taken to be in %; do not add the unit.

(Q) Which Population Hoechst High Intensity Objects (%) value is on record for O=C1NCN(c2ccccc2)C12CCN(CCCOc1ccc(F)cc1)CC2 [SPIRAMIDE] ?
(A) 18

(Q) Which Population Hoechst High Intensity Objects (%) value belongs to Cc1cc(C)cc(-c2cnc3cc(Cl)c(-c4cccc(O)c4)cc3c2OCCCN)c1 ?
(A) 16

(Q) Can you look up the measured Population Hoechst High Intensity Objects (%) of CN(C)CC#Cc1ccc(OCCCc2sc(N3CCc4cccc(C(=O)Nc5nc6ccccc6s5)c4C3)nc2C(=O)O)c(F)c1 for me?
(A) 11

Next item in the queue.
(Q) Which Population Hoechst High Intensity Objects (%) value is on record for Cl.N#Cc1ccc2[nH]cc(CCCCN3CCN(c4ccc5oc(C(N)=O)cc5c4)CC3)c2c1 [VILAZODONE HYDROCHLORIDE] ?
(A) 16

----------
Test system: U2OS
Assay: Multiplex assay against U2OS
Type: toxicity, cell-based
Conditions: human, 48 h, 1 µM, compound concentration 1 uM, replicate 2
Readout: Population Hoechst High Intensity Objects (%)
Write it as a number; the unit % goes unstated.

(Q) Requested field: Population Hoechst High Intensity Objects (%). Item: O=C1NCN(c2ccccc2)C12CCN(CCCOc1ccc(F)cc1)CC2 [SPIRAMIDE]
(A) 1

(Q) Which Population Hoechst High Intensity Objects (%) is listed for Cn1cc(-c2[nH]c3cc(NC(=O)[C@H](N)C4CCCCC4)cc4c3c2C=NNC4=O)cn1 ?
(A) 5

(Q) Reported Population Hoechst High Intensity Objects (%) for CN(C)CC#Cc1ccc(OCCCc2sc(N3CCc4cccc(C(=O)Nc5nc6ccccc6s5)c4C3)nc2C(=O)O)c(F)c1 : what is it?
(A) 5

Now look at this one.
(Q) Which Population Hoechst High Intensity Objects (%) is reported for this compound? CC(C)NCC(O)COc1ccc(CCOCC2CC2)cc1.Cl (centres undefined) [BETAXOLOL HYDROCHLORIDE]
(A) 3

----------
System: HEK-293T
Test: Multiplex assay against HEK293T
Assay type: toxicity, cell-based
Conditions: human, 24 h, 10 µM, compound concentration 10 uM, replicate 1
The label is 1.0 for Total Cell Count below 300 and 0.0 for Total Cell Count equal to or exceeding 300.

(Q) Is Total Cell Count of Cc1nc(-c2cn3c(n2)-c2ccc(-c4cnn(C(C)(C)C(N)=O)c4)cc2OCC3)n(C(C)C)n1 strictly below 300?
(A) 0.0

(Q) # strict comparison: is reported Total Cell Count < 300? input = COc1cc(-n2cnc3cc(-c4ccc(Cl)cc4)sc3c2=O)ccc1OCCN1CCCC1
(A) 1.0

(Q) Identify whether the compound COc1ncc(-c2ccc3nccc(-c4ccnnc4)c3c2)cc1NS(=O)(=O)c1ccc(F)cc1F records Total Cell Count below 300.
(A) 1.0

(Q) # strict comparison: is reported Total Cell Count < 300? input = CN1CCCC(n2nc(Cc3ccc(Cl)cc3)c3ccccc3c2=O)CC1.Cl (configuration not stated) [AZELASTINE HYDROCHLORIDE]
(A) 1.0

(Q) Does the reported Total Cell Count of the following compound sit strictly below 300? Cl.N#Cc1ccc2[nH]cc(CCCCN3CCN(c4ccc5oc(C(N)=O)cc5c4)CC3)c2c1 [VILAZODONE HYDROCHLORIDE]
(A) 1.0

---
(Q) Quick check: Total Cell Count of c1cn2cc(-c3ccc4cn[nH]c4c3)nc(Nc3ccc(N4CCOCC4)cc3)c2n1 under 300?
(A) 0.0

(Q) Is Total Cell Count of Cc1nc(Nc2n[nH]c3c2CN(C(=O)N[C@H](CN(C)C)c2ccccc2)C3(C)C)c2sccc2n1 strictly below 300?
(A) 0.0

(Q) Please state whether Total Cell Count is below 300 for CNc1nc(NCc2ccc(NS(C)(=O)=O)cc2Cl)cc(-c2ccccn2)n1
(A) 1.0

(Q) Is it true that Total Cell Count reported for CC(C)(O)CNc1ncc(-c2ccnc(Nc3ccnc(Cl)c3)n2)c(CC2CC2)n1 is less than 300?
(A) 0.0

(Q) A record lists O=C1NCN(c2ccccc2)C12CCN(CCCOc1ccc(F)cc1)CC2 [SPIRAMIDE] . Is its Total Cell Count below 300?
(A) 1.0

(Q) Find out if reported Total Cell Count for CN(C)C(=O)N[C@H]1CC[C@H](CCN2CCN(c3cccc(Cl)c3Cl)CC2)CC1.Cl [CARIPRAZINE HYDROCHLORIDE] is less than 300
(A) 1.0

(Q) # TODO verify Total Cell Count < 300 strictly for this compound: C=CC(=O)Nc1cc2c(Nc3ccc(F)c(Cl)c3)ncnc2cc1OCCCN1CCOCC1.Cl.Cl [CANERTINIB DIHYDROCHLORIDE]
(A) 0.0

(Q) For this compound, is Total Cell Count lower than 300? OC1(c2ccc(Cl)cc2)CCN(Cc2c[nH]c3ccccc23)CC1
(A) 1.0

(Q) I'd appreciate it if you could check whether COc1cc2nccc(Oc3ccc(NC(=O)Nc4cc(C)on4)c(Cl)c3)c2cc1OC.O has Total Cell Count smaller than 300.
(A) 1.0

(Q) I'd appreciate it if you could check whether C[C@@H](NCCCc1cccc(C(F)(F)F)c1)c1cccc2ccccc12.Cl [CINACALCET HYDROCHLORIDE] has Total Cell Count smaller than 300.
(A) 1.0

----------
Tested on: Fibroblast
Assay: Multiplex assay against human fibroblast
Format: toxicity, cell-based
Settings: 24 h, 10 µM, compound concentration 10 uM, replicate 1
Answer class 0 if Population Mitochondria Different-Phenotype (%) is under 20%, and class 1 if it is 20% or more.

(Q) Would you say OC1(c2ccc(Cl)cc2)CCN(Cc2c[nH]c3ccccc23)CC1 shows Population Mitochondria Different-Phenotype (%) at minimum 20%?
(A) class 1

(Q) Does CCN(CC)CCCCNc1ncc2cc(-c3cc(OC)cc(OC)c3)c(NC(=O)NC(C)(C)C)nc2n1 have a reported Population Mitochondria Different-Phenotype (%) of at least 20%?
(A) class 0

(Q) Textbook exercise: given the entry COc1cccc([C@@H](C)NCCCc2ccccc2Cl)c1.Cl [TECALCET HYDROCHLORIDE] , state whether its Population Mitochondria Different-Phenotype (%) is greater than or equal to 20%.
(A) class 1

(Q) Kindly determine if Population Mitochondria Different-Phenotype (%) recorded for Cc1nc(-c2ccc(-c3ccc(C(=O)N4CCc5cc6c(cc54)C4(CCN(C)CC4)CO6)cc3)c(C)c2)no1 is above or exactly 20%.
(A) class 1

(Q) Is Population Mitochondria Different-Phenotype (%) at least 20%? Consider c1cn2cc(-c3ccc4cn[nH]c4c3)nc(Nc3ccc(N4CCOCC4)cc3)c2n1
(A) class 0

(Q) Test whether the molecule C=CC(=O)Nc1cc2c(Nc3ccc(F)c(Cl)c3)ncnc2cc1OCCCN1CCOCC1.Cl.Cl [CANERTINIB DIHYDROCHLORIDE] records Population Mitochondria Different-Phenotype (%) of 20% or higher.
(A) class 0

(Q) Does the reported Population Mitochondria Different-Phenotype (%) for Cc1cc(C)cc(-c2cnc3cc(Cl)c(-c4cccc(O)c4)cc3c2OCCCN)c1 fall at or above the 20% mark?
(A) class 0

(Q) Check this molecule for Population Mitochondria Different-Phenotype (%) at or above 20%: C=CC(=O)Nc1ccc2ncnc(Nc3ccc(OCc4cccc(F)c4)c(Cl)c3)c2c1.Cc1ccc(S(=O)(=O)O)cc1
(A) class 0

(Q) Test whether the molecule Cn1cc(-c2[nH]c3cc(NC(=O)[C@H](N)C4CCCCC4)cc4c3c2C=NNC4=O)cn1 records Population Mitochondria Different-Phenotype (%) of 20% or higher.
(A) class 0

(Q) Population Mitochondria Different-Phenotype (%) >= 20% for Cc1c(-c2ccc(O)cc2)n(Cc2ccc(OCCN3CCCCCC3)cc2)c2ccc(O)cc12 ?
(A) class 1

Others:
(Q) Does Cc1[nH]c(/C=C2\C(=O)Nc3ccc(S(=O)(=O)N(C)c4cccc(Cl)c4)cc32)c(C)c1C(=O)N1CCN(C)CC1 have a reported Population Mitochondria Different-Phenotype (%) of at least 20%?
(A) class 1

(Q) Form field: Population Mitochondria Different-Phenotype (%) at least 20%? Entry: C=CC(=O)Nc1cccc(C(=O)Nc2ccc(Nc3cc(-c4[nH]c(SC)nc4C)ccn3)cc2)c1
(A) class 0

(Q) Form field: Population Mitochondria Different-Phenotype (%) at least 20%? Entry: COc1cc2nccc(Oc3ccc(NC(=O)Nc4cc(C)on4)c(Cl)c3)c2cc1OC.O
(A) class 1

(Q) Please indicate if the recorded Population Mitochondria Different-Phenotype (%) for Cc1nc(Nc2n[nH]c3c2CN(C(=O)N[C@H](CN(C)C)c2ccccc2)C3(C)C)c2sccc2n1 meets or exceeds 20%.
(A) class 0

(Q) Is Population Mitochondria Different-Phenotype (%) for COc1ncc(-c2ccc3nccc(-c4ccnnc4)c3c2)cc1NS(=O)(=O)c1ccc(F)cc1F at or above 20%?
(A) class 0
